Where do these numbers come from? They come from patent US20250171495A1.

- system under test: matriptase (Homo sapiens, UniProt Q9Y5Y6)
- Construct: purchased R&D Systems 3946-SEB-010
- Sequence (Q9Y5Y6 615-855 limits assumed): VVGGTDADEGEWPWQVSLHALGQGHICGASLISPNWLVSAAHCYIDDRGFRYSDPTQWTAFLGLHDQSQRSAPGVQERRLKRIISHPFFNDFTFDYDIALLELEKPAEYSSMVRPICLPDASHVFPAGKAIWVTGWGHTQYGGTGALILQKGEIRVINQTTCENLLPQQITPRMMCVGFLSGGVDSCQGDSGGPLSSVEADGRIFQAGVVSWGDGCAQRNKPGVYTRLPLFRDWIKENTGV
- measurement description: Fluorogenic kinetic enzyme inhibitor assay, matriptase
- Format: biochemical
Provide the reported pIC50 of each item.
Give bare numbers, as −log10 of the molar value.

molecule	pIC50
CCC(C)[C@H](NC(C)=O)C(=O)N[C@@H](CCC(N)=O)C(=O)N[C@H](C(=O)N[C@@H](CCCNC(=N)N)C(=O)c1nc2ccccc2s1)C(C)O (stereo partly drawn) [MM3186]	7.81
CC(=O)N1CCC[C@H]1C(=O)N[C@@H](CO)C(=O)N[C@@H](CCCCN)C(=O)N[C@@H](CCCNC(=N)N)C(=O)c1nc2ccccc2s1 [MM3194A]	9.53

# input for lookup
Record summary for CC(=O)N[C@@H](CCCCN)C(=O)N[C@@H](CCC(N)=O)C(=O)N[C@@H](Cc1ccccc1)C(=O)N[C@@H](CCCNC(=N)N)C(=O)c1nccs1 [ZFH6101] : reported pIC50 = 8.85

###

Numbered stars: 1 amine (or outer) side, 2 acyl side, 3 side chain; on linkers, the order of the positions; unused ones are H or OH. Square brackets hold non-standard residues; d marks the D form. Peptide text beside a SMILES is read from it. X1 = N=C(N)NCCC[C@H](N[*:1])C(=O)c1nc2ccc(C(=O)[*:2])cc2s1; Phe(4-NO2) = N[C@@H](Cc1ccc([N+](=O)[O-])cc1)C(=O)O
This document collects IC50 values reported for Thrombin (Homo sapiens, UniProt P00734).

compound	value reported
CC(=O)N[C@H]1C/C=C\COc2ccc(cc2)C[C@@H](C(=O)N[C@@H](CCCNC(=N)N)C(=O)c2nc3ccccc3s2)NC(=O)[C@H](CC(C)C)NC1=O [VD4051]	> 20 µM

Could I get IC50 for every one of these entries?
1. CC(=O)N[C@H](Cc1c[nH]c2ccccc12)C(=O)N[C@@H](Cc1ccccc1)C(=O)N[C@@H](CCCNC(=N)N)C(=O)c1nc2ccc(C(=O)O)cc2s1 [PK-1-93]
2. CC(=O)N[C@@H](Cc1c[nH]c2ccccc12)C(=O)N[C@@H](CC(C)C)C(=O)N[C@@H](CCCNC(=N)N)C(=O)c1nc2ccccc2s1 [PK-1-104]
3. N=C(N)NCCC[C@H](NC(=O)[C@H](Cc1ccccc1)NC(=O)[C@H](CCC(N)=O)NCCc1ccccc1)C(=O)c1nc2ccccc2s1 [CA1033-2]
4. CC(=O)N[C@H](Cc1c[nH]c2ccccc12)C(=O)N[C@@H](CC(C)C)C(=O)N[C@@H](CCCNC(=N)N)C(=O)c1nc2ccccc2s1 [PK-1-91]
5. CC(=O)N[C@@H](CO)C(=O)N[C@@H](Cc1ccc([N+](=O)[O-])cc1)C(=O)N[C@@H](CC(C)C)C(=O)N[C@@H](CCCNC(=N)N)C(=O)c1nc2ccc(C(=O)N[C@H](C(N)=O)C(C)C)cc2s1 [MM1180] (Ac-S[Phe(4-NO2)]L[X1]V-NH2)
6. CC(=O)N[C@@H](CC(C)C)C(=O)N[C@@H](CCC(N)=O)C(=O)N[C@@H](Cc1ccccc1)C(=O)N[C@@H](CCCNC(=N)N)C(=O)c1nc2ccccc2s1 [MM3131]
7. CC(=O)N[C@H]1CC(=O)NCCCC[C@@H](C(=O)N[C@@H](CCCNC(=N)N)C(=O)c2nc3ccccc3s2)NC(=O)[C@H](CCC(N)=O)NC1=O [VD3152]
8. N=C(N)NCCC[C@@H](NC(=O)[C@H](Cc1ccccc1)NC(=O)[C@H](CCC(N)=O)NCCc1ccccc1)C(=O)c1nc2ccccc2s1 [CA1033-1]

a:
1. 19.9 µM
2. 17 µM
3. 10.2 µM
4. 9.37 µM
5. 0.134 µM
6. > 20 µM
7. > 20 µM
8. > 20 µM

Could I get IC50 for every one of these entries?
1. CC(=O)N[C@H]1Cc2ccc(cc2)OCCCC[C@@H](C(=O)N[C@@H](CCCNC(=N)N)C(=O)c2nc3ccccc3s2)NC(=O)[C@H](CC(C)C)NC1=O [VD4072]
2. CCC(C)[C@H](NC(C)=O)C(=O)N[C@@H](CCC(N)=O)C(=O)N[C@H](C(=O)N[C@H](CCCNC(=N)N)C(=O)c1nc2ccccc2s1)C(C)C (stereo partly drawn) [MM3180-1]
3. CC(=O)N[C@@H](CO)C(=O)N[C@@H](CCCCN)C(=O)N[C@@H](CC(C)C)C(=O)N[C@@H](CCCNC(=N)N)C(=O)c1nc2ccc(C(=O)N[C@H](C(N)=O)C(C)C)cc2s1 [ZFH7116] (Ac-SKL[X1]V-NH2)
4. CCC(C)[C@H](NC(C)=O)C(=O)N[C@@H](CCC(N)=O)C(=O)N[C@@H](Cc1c[nH]c2ccccc12)C(=O)N[C@@H](CCCNC(=N)N)C(=O)c1nc2ccccc2s1 (stereo partly drawn) [MM3187]
5. CC(=O)N[C@@H](Cc1c[nH]c2ccccc12)C(=O)N[C@@H](CC(C)C)C(=O)N[C@@H](Cc1ccccc1)C(=O)N[C@@H](CCCNC(=N)N)C(=O)c1nc2ccccc2s1 [ZFH7064]
6. CC(=O)N[C@H]1Cc2cn(nn2)CCCC[C@H](C(=O)N[C@@H](CCCNC(=N)N)C(=O)c2nc3ccccc3s2)NC(=O)[C@H](CC(C)C)NC1=O [VD4090]
7. N=C(N)NCCC[C@H](NC(=O)[C@H](Cc1ccccc1)NC(=O)[C@H](CCC(N)=O)NC(=O)c1ccccc1)C(=O)c1nc2ccccc2s1 [CA1043]

a:
["> 20 µM", "> 20 µM", "7.53 µM", "> 20 µM", "> 20 µM", "> 20 µM", "> 20 µM"]

Could I get IC50 for every one of these entries?
1. CC(=O)N[C@H]1Cc2ccc(cc2)OC/C=C\C[C@@H](C(=O)N[C@@H](CCCNC(=N)N)C(=O)c2nc3ccccc3s2)NC(=O)[C@H](CC(C)C)NC1=O [VD4010]
2. CCC(C)[C@H](NC(C)=O)C(=O)N[C@@H](CCC(N)=O)C(=O)N[C@@H](C)C(=O)N[C@@H](CCCNC(=N)N)C(=O)c1nc2ccccc2s1 (stereo partly drawn) [MM3178]
3. CC(=O)N[C@@H](Cc1cncn1COCc1ccccc1)C(=O)N[C@@H](CCCCNC(=N)N)C(=O)N[C@@H](CCC(C)C)C(=O)N[C@@H](CCCNC(=N)N)C(=O)c1nc2ccccc2s1 [JH1143-2]
4. CC(=O)N[C@H]1CC(=O)NCCCC[C@@H](C(=O)N[C@@H](CCCNC(=N)N)C(=O)c2nc3ccccc3s2)NC(=O)[C@H](CC(C)C)NC1=O [VD2173, Ac-Cyclo(DLK)—R-ketobenzothiazole]
5. CC(=O)N[C@H]1Cc2ccc(cc2)Oc2cccc(c2)C[C@@H](C(=O)N[C@@H](CCCNC(=N)N)C(=O)c2nc3ccccc3s2)NC(=O)[C@H](CC(C)C)NC1=O [VD5064B]

a:
1: > 20 µM; 2: > 20 µM; 3: 1.63 µM; 4: 8.14 µM; 5: > 20 µM
